target: interaction between biotinylated human S100A9 and human RAGE-Fc (Homo sapiens); assay: AlphaScreen inhibition assay, Biot-hS100A9:hRAGE-Fc (S100A9-RAGE inhibition assay); conditions: biot-hS100A9 and rhRAGE-Fc, Ca2+ and Zn2+ in buffer
observable: IC50 (nM)
Reply numerically in nM, unit not repeated.

Task: Quote interaction between biotinylated human S100A9 and human RAGE-Fc (Homo sapiens) IC50 for entry Cc1cc2nc3n(c2cc1C)C(NC(=O)[C@@H](O)c1ccccc1)(C(F)(F)F)C(=O)N3 (single isomer, unassigned) [Example 146a] .
Result: 5390

Task: Specify the recorded IC50 for Cc1cc2nc3n(c2cc1C)C(NC(=O)c1cccc(NC2CCCCC2)n1)(C(F)(F)F)C(=O)N3 (stereo not drawn) [Example 35] , system: interaction between biotinylated human S100A9 and human RAGE-Fc (Homo sapiens).
Result: 2700

Task: Give IC50 for this entry on interaction between biotinylated human S100A9 and human RAGE-Fc (Homo sapiens): O=C(CCC1CCCC1)NC1(C(F)(F)F)C(=O)Nc2nc3cc(F)c(F)cc3n21 (stereo not drawn) [Example 73]
Result: 2800

* * *

target: interaction between biotinylated human S100A9 and human RAGE-Fc (Homo sapiens); experiment: AlphaScreen inhibition assay, Biot-hS100A9:hRAGE-Fc (S100A9-RAGE inhibition assay); details: biot-hS100A9 and rhRAGE-Fc, Ca2+ and Zn2+ in buffer
observable: pIC50
Just the number, please; pIC50 means minus log10 of the concentration in mol/L.

Past entries and their recorded results:
[
  {
    "compound": "Cc1ccc2c(nc3n2C(NC(=O)CCC2CCCC2)(C(F)(F)F)C(=O)N3)c1C (stereo not drawn)",
    "observable": "pIC50",
    "numericValue": 5.13
  },
  {
    "compound": "Cc1cc2nc3n(c2cc1C)C(NC(=O)[C@@H](C)Oc1cccc(Cl)c1)(C(F)(F)F)C(=O)N3 (single isomer, unassigned) [Example 212a]",
    "observable": "pIC50",
    "numericValue": 6.21
  },
  {
    "compound": "Cc1cc2nc3n(c2cc1C)C(NC(=O)CCC1CCCC1)(C(F)(F)F)C(=O)N3 (stereo not drawn) [Example 27]",
    "observable": "pIC50",
    "numericValue": 6.40
  },
  {
    "compound": "CCNc1cccc(C(=O)NC2(C(F)(F)F)C(=O)Nc3nc4cc(Cl)c(Cl)cc4n32)n1 (stereo not drawn)",
    "observable": "pIC50",
    "numericValue": 5.89
  },
  {
    "compound": "O=C(NC1(C(F)(F)F)C(=O)Nc2nc3cc(Cl)c(Cl)cc3n21)C1CCN(C(=O)CC(F)(F)F)CC1 (stereo not drawn)",
    "observable": "pIC50",
    "numericValue": 5.42
  }
]

Task: Answer with the recorded pIC50 of CC(=O)N1CC(C(=O)NC2(C(F)(F)F)C(=O)Nc3nc4cc(Cl)c(Cl)cc4n32)C1 (stereo not drawn) only.
Result: 5.41

Task: Quote pIC50 reported for O=C(CCC1CCCCN1)NC1(C(F)(F)F)C(=O)Nc2nc3cc(Cl)c(Cl)cc3n21 (stereo not drawn) please.
Result: 5.31

Task: State its pIC50: Cc1cc2nc3n(c2cc1C)C(NC(=O)CCC1CCCC1)(C(F)(F)F)C(=O)N3 (single isomer, unassigned) [Example 218b]
Result: 6.14

Task: Look up and state reported pIC50 for COCCNc1nc(C(=O)NC2(C(F)(F)F)C(=O)Nc3nc4cc(C)c(C)cc4n32)cs1 (stereo not drawn)
Result: 5.74

Task: Give pIC50 for O=C(CCc1ccccc1)NC1(C(F)(F)F)C(=O)Nc2nc3cc(Cl)c(Cl)cc3n21 (stereo not drawn)
Result: 6.10

Task: Give the reported value of pIC50 for this record: CC(=O)c1cc(Cl)cc2c1nc1n2C(NC(=O)CCC2CCCC2)(C(F)(F)F)C(=O)N1 (stereo not drawn)
Result: 5.95

Task: Read off the recorded pIC50 for O=C(NC1(C(F)(F)F)C(=O)Nc2nc3cc(Cl)c(Cl)cc3n21)c1cccc(Cl)c1 (stereo not drawn)
Result: 5.85

Task: Using known records, supply pIC50 for COc1cccc(-c2cccc3c2nc2n3C(NC(=O)CCC3CCCC3)(C(F)(F)F)C(=O)N2)c1 (stereo not drawn)
Result: 6.02

Task: Tell me its pIC50 given O=C(CCC1CCCC1)NC1(C(F)(F)F)C(=O)Nc2nc3cc(Cl)c(Cl)cc3n21 (single isomer, unassigned) [Example 219b] as the entry.
Result: 6.64

Task: Tell us which pIC50 value is on record for COC[C@H](C)Nc1cccc(C(=O)NC2(C(F)(F)F)C(=O)Nc3nc4c(C#N)c(Cl)ccc4n32)n1 (mixture of isomers)
Result: 5.84

* * *

target: interaction between biotinylated human S100A9 and human RAGE-Fc (Homo sapiens); assay: AlphaScreen inhibition assay, Biot-hS100A9:hRAGE-Fc (S100A9-RAGE inhibition assay); details: biot-hS100A9 and rhRAGE-Fc, Ca2+ and Zn2+ in buffer
Measured pIC50 values are reported for all entries that follow.
The quantity pIC50 is defined as the negative base-10 logarithm of the molar concentration.

[
  {
    "compound": "Cc1cc2nc3n(c2cc1C)C(NC(=O)[C@H](C)OCC1CCCC1)(C(F)(F)F)C(=O)N3 (single isomer, unassigned) [Example 215a]",
    "numericValue": 5.84
  }
]

Task: Give me measured pIC50, please, for this compound: COCC(=O)N1CCC(C(=O)NC2(C(F)(F)F)C(=O)Nc3nc4cc(Cl)c(Cl)cc4n32)CC1 (centres unmarked) [Example 44]
Result: 5.33

* * *

target: interaction between biotinylated human S100A9 and human RAGE-Fc (Homo sapiens, UniProt P06702); assay: AlphaScreen inhibition assay, Biot-hS100A9:hRAGE-Fc (S100A9-RAGE inhibition assay); conditions: biot-hS100A9 and rhRAGE-Fc, Ca2+ and Zn2+ in buffer
Sequence (P06702 whole entry, one chain of several): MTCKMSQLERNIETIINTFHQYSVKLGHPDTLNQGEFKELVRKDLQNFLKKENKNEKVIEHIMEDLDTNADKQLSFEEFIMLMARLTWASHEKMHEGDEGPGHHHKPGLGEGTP
pIC50: −log10 of the molar value.
Decide by pIC50: equal to or exceeding 6 means Fulfilled, less means Not fulfilled.

Task: Decide: is the reported value of pIC50 for Cc1cc2nc3n(c2cc1C)C(NC(=O)[C@@H]1CCCN1S(C)(=O)=O)(C(F)(F)F)C(=O)N3 (single isomer, unassigned) [Example 89] equal to or greater than 6?
Result: Not fulfilled

Task: Does the reported pIC50 for COCCNc1cccc(C(=O)NC2(C(F)(F)F)C(=O)Nc3nc4cc(C)c(C)cc4n32)n1 (stereo not shown) [Example 111] fall at or above the 6 mark?
Result: Not fulfilled

* * *

molecular target: interaction between biotinylated human S100A9 and human RAGE-Fc (Homo sapiens, UniProt P06702); experiment: AlphaScreen inhibition assay, Biot-hS100A9:hRAGE-Fc (S100A9-RAGE inhibition assay); conditions: biot-hS100A9 and rhRAGE-Fc, Ca2+ and Zn2+ in buffer
Reported IC50 values are given for each entry in this list.
Just the number please, in nM, no unit attached.

Solved cases (5 shown):
[
  {
    "compound": "CCCC(=O)NC1(C(F)(F)F)C(=O)Nc2nc3c(-c4ccc(OC)cc4)cccc3n21 (stereo not drawn)",
    "numericValue": 920
  },
  {
    "compound": "O=C(NC1(C(F)(F)F)C(=O)Nc2nc3cc(Cl)c(Cl)cc3n21)[C@@H]1CCN(S(=O)(=O)C2CCCC2)C1 (stereo partly drawn)",
    "numericValue": 1200
  },
  {
    "compound": "COCCNc1cccc(C(=O)NC2(C(F)(F)F)C(=O)Nc3nc4cc(C)c(C)cc4n32)n1 (single isomer, unassigned) [Example 220a]",
    "numericValue": 1930
  },
  {
    "compound": "O=C(CCC1CCCC1)NC1(C(F)(F)F)C(=O)Nc2nc3c(-c4ccc(Cl)c(Cl)c4)cccc3n21 (stereo not drawn)",
    "numericValue": 1340
  },
  {
    "compound": "O=C(NC1(C(F)(F)F)C(=O)Nc2nc3cc(Cl)c(Cl)cc3n21)C1(F)CNC1 (stereo not drawn)",
    "numericValue": 3970
  }
]

Would you kindly look at the next entry?
Task: Provide IC50 value for the following compound: Cc1cc2nc3n(c2cc1C)C(NC(=O)CCC1CCCC1)(C(F)(F)F)C(=O)N3 (single isomer, unassigned) [Example 218a]
Result: 3130

* * *

biological target: interaction between biotinylated human S100A9 and human RAGE-Fc (Homo sapiens, UniProt P06702); assay: AlphaScreen inhibition assay, Biot-hS100A9:hRAGE-Fc (S100A9-RAGE inhibition assay); conditions: biot-hS100A9 and rhRAGE-Fc, Ca2+ and Zn2+ in buffer
Define the label as MET when IC50 is strictly less than 0.7 µM and as NOT MET in all remaining cases.

Reference set, count: 6
[
  {
    "compound": "O=C(NC1(C(F)(F)F)C(=O)Nc2nc3cc(Cl)c(Cl)cc3n21)c1cccc(NC2CCCCC2)n1 (centres unmarked) [Example 66]",
    "categoryLabel": "MET"
  },
  {
    "compound": "O=C(CCC1CCCC1)NC1(C(F)(F)F)C(=O)Nc2nc3cc(Cl)c(Cl)cc3n21 (centres unmarked) [Example 39]",
    "categoryLabel": "MET"
  },
  {
    "compound": "O=C(NC1(C(F)(F)F)C(=O)Nc2nc3cc(Cl)c(Cl)cc3n21)c1cc(Cl)cc(Cl)c1 (centres unmarked) [Example 57]",
    "categoryLabel": "NOT MET"
  },
  {
    "compound": "CO[C@H](C(=O)NC1(C(F)(F)F)C(=O)Nc2nc3cc(C)c(C)cc3n21)c1ccccc1 (single isomer, unassigned) [Example 147b]",
    "categoryLabel": "NOT MET"
  },
  {
    "compound": "O=C(NC1(C(F)(F)F)C(=O)Nc2nc3cc(Cl)c(Cl)cc3n21)C1CCCC1 (centres unmarked) [Example 54]",
    "categoryLabel": "NOT MET"
  },
  {
    "compound": "Cc1cc2nc3n(c2cc1C)C(NC(=O)[C@@H](C)Oc1cccc(Cl)c1)(C(F)(F)F)C(=O)N3 (single isomer, unassigned) [Example 212b]",
    "categoryLabel": "NOT MET"
  }
]

We next turn to a different compound, shown below.
Task: Does this compound meet the criterion IC50 < 0.7 µM? COc1cc2nc3n(c2cc1OC)C(NC(=O)CCC1CCCC1)(C(F)(F)F)C(=O)N3 (centres unmarked) [Example 76]
Result: NOT MET

Every entry's value here was drawn from patent US9771372B2.
